Measured values drawn from patent US6689790B2 for this set.

- Target Entity: human adenosine A2A receptor (Homo sapiens)
- Construct: expressed in transfected cells; host or cells: CHO cells, semliki forest virus expression system; washed membranes
- Measurement Protocol: [3H]-SCH-58261 binding assay, human adenosine A2A receptor (CHO cell membranes, SPA)
- Experimental Conditions: [3H]-SCH-58261 displacement; list of examples 10-108; read-out: hA2a Ki
pKi: −log10 of the molar value.
Property Label: pKi

The reported pKi of the molecule `CN(CCc1ccccc1)C(=O)c1cc(N)c2nc(-c3ccco3)nn2c1` was 6.60

The reported pKi of the molecule `Nc1cc(C(=O)N2CCCCC2)cn2nc(-c3ccccn3)nc12` was 6.26

The reported pKi of the molecule COCC1CCCN1C(=O)c1cc(N)c2nc(-c3ccc(C)s3)nn2c1 (stereo in doubt) was 6.37

The reported pKi of the molecule Cc1ccc(-c2nc3c(N)cc(C(=O)N4CCCC4C)cn3n2)s1 (stereo not drawn) was 6.81

(A) CCCCN(C)C(=O)c1cc(N)c2nc(-c3nccs3)nn2c1
(B) CC1CCCCN1C(=O)c1cc(N)c2nc(-c3ccccc3)nn2c1 (stereo not drawn)
Ask | Just tell me: smaller pKi value, A or B ? Respond using the label that marks the chosen record.
Reply | A

(A) Cc1ccc(-c2nc3c(N)cc(C(=O)N4CCCC(C)C4)cn3n2)s1 (stereo not drawn)
(B) CN(CCc1ccccc1)C(=O)c1cc(N)c2nc(-c3cccs3)nn2c1
Ask | Response body: label of entry with the larger pKi; valid values A , B . Respond using the label that marks the chosen record.
Reply | A
(A: 6.75, B: 6.40)

----------
- Target Entity: human adenosine A2A receptor (Homo sapiens, UniProt P29274)
- Construct: expressed in transfected cells; host or cells: CHO cells, semliki forest virus expression system; washed membranes
- Sequence (P29274 whole entry): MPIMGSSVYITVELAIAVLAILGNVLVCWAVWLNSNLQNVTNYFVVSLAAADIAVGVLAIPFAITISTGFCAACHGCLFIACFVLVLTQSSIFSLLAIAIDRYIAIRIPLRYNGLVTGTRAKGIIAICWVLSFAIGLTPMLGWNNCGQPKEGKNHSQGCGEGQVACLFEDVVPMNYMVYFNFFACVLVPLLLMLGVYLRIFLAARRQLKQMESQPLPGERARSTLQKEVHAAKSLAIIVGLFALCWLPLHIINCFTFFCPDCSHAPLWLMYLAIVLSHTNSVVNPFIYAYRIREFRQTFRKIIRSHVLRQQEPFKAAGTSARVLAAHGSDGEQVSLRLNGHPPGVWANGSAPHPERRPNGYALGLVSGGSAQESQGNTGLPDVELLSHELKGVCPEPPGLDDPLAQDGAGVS
- Measurement Protocol: [3H]-SCH-58261 binding assay, human adenosine A2A receptor (CHO cell membranes, SPA)
- Experimental Conditions: [3H]-SCH-58261 displacement; list of examples 10-108; read-out: hA2a Ki
Property Label: Ki (µM)

Please review the following examples before continuing.
The reported Ki of the compound `Cc1ccc(-c2nc3c(N)cc(C(=O)N4CCCCC4)cn3n2)s1` was 0.225

The reported Ki of the compound `Cc1ccc(-c2nc3c(N)cc(C(=O)N(C)CCc4ccccc4)cn3n2)s1` was 0.309

(1) COC[C@H]1CCCN1C(=O)c1cc(N)c2nc(-c3cccs3)nn2c1
(2) CCN(CC)C(=O)C1CCCN(C(=O)c2cc(N)c3nc(-c4ccco4)nn3c2)C1 (centres unmarked)
(3) CCN(CCc1ccccn1)C(=O)c1cc(N)c2nc(-c3cccs3)nn2c1
Ask | Sort these compounds on Ki so the largest reading comes first. Give me the labels in the order the question wants.
Reply | 3, 2, 1
(3: 0.718 µM, 2: 0.371 µM, 1: 0.242 µM)

----------
- Target Entity: human adenosine A2A receptor (Homo sapiens, UniProt P29274)
- Construct: expressed in transfected cells; host or cells: CHO cells, semliki forest virus expression system; washed membranes
- Measurement Protocol: [3H]-SCH-58261 binding assay, human adenosine A2A receptor (CHO cell membranes, SPA)
- Experimental Conditions: [3H]-SCH-58261 displacement; list of examples 10-108; read-out: hA2a Ki
Property Label: Ki (nM)

The reported Ki of the compound `CCCN(C)C(=O)c1cc(N)c2nc(-c3ccc(C)o3)nn2c1` was 178

The reported Ki of the compound CC1CCCN(C(=O)c2cc(N)c3nc(-c4nccs4)nn3c2)C1 (stereo not drawn) was 632

The reported Ki of the compound `CN(C)C(=O)CN(C)C(=O)c1cc(N)c2nc(-c3cccs3)nn2c1` was 548

The reported Ki of the compound `CCN(CC)C(=O)c1cc(N)c2nc(-c3ccco3)nn2c1` was 422

The reported Ki of the compound `CCCN(CCC)C(=O)c1cc(N)c2nc(-c3ccco3)nn2c1` was 370

The reported Ki of the compound `CN(C)C(=O)CN(C)C(=O)c1cc(N)c2nc(-c3ccco3)nn2c1` was 343

The reported Ki of the compound `CCCN(C)C(=O)c1cc(N)c2nc(-c3ccccc3)nn2c1` was 886

(1) Nc1cc(C(=O)N2CCSCC2)cn2nc(-c3cccs3)nc12
(2) CCCN(C)C(=O)c1cc(N)c2nc(-c3ccc(C)s3)nn2c1
Ask | Just tell me: smaller Ki value, 1 or 2 ? Respond using the label that marks the chosen record.
Reply | 2

----------
- Target Entity: human adenosine A2A receptor (Homo sapiens, UniProt P29274)
- Construct: expressed in transfected cells; host or cells: CHO cells, semliki forest virus expression system; washed membranes
- Measurement Protocol: [3H]-SCH-58261 binding assay, human adenosine A2A receptor (CHO cell membranes, SPA)
- Experimental Conditions: [3H]-SCH-58261 displacement; list of examples 10-108; read-out: hA2a Ki
Property Label: Ki (nM)

The reported Ki of the compound `Cc1ccc(-c2nc3c(N)cc(C(=O)N4CCCC4)cn3n2)s1` was 213

The reported Ki of the compound `CCN(CCOC)C(=O)c1cc(N)c2nc(-c3cccs3)nn2c1` was 920

(P) CN(CCc1ccccc1)C(=O)c1cc(N)c2nc(-c3nccs3)nn2c1
(Q) Nc1cc(C(=O)N2CCCCC2)cn2nc(-c3cccs3)nc12
(R) CN(CCc1ccccc1)C(=O)c1cc(N)c2nc(-c3ccccc3)nn2c1
Ask | Sort these compounds on Ki so the largest reading comes first. Give me the labels in the order the question wants.
Reply | P, R, Q

----------
- Target Entity: human adenosine A2A receptor (Homo sapiens, UniProt P29274)
- Construct: expressed in transfected cells; host or cells: CHO cells, semliki forest virus expression system; washed membranes
- Measurement Protocol: [3H]-SCH-58261 binding assay, human adenosine A2A receptor (CHO cell membranes, SPA)
- Experimental Conditions: [3H]-SCH-58261 displacement; list of examples 10-108; read-out: hA2a Ki
Property Label: Ki (µM)

The reported Ki of the molecule CCN(CC)C(=O)c1cc(N)c2nc(-c3ccc(C)o3)nn2c1 [Example 82] was 0.131

The reported Ki of the molecule CCN(CCOC)C(=O)c1cc(N)c2nc(-c3ccco3)nn2c1 [Example 45] was 0.506

The reported Ki of the molecule NC(=O)[C@H]1CCCN1C(=O)c1cc(N)c2nc(-c3cccs3)nn2c1 [Example 59] was 0.215

The reported Ki of the molecule CC1CCCN1C(=O)c1cc(N)c2nc(-c3ccccn3)nn2c1 (stereo not shown) [Example 28] was 0.369

The reported Ki of the molecule Nc1cc(C(=O)N2CCCC2)cn2nc(-c3ccccc3)nc12 [Example 68] was 0.246

The reported Ki of the molecule CC1CCCN1C(=O)c1cc(N)c2nc(-c3nccs3)nn2c1 (stereo not shown) [Example 105] was 0.654

(I) Cc1ccc(-c2nc3c(N)cc(C(=O)N4CCSCC4)cn3n2)s1 [Example 102]
(II) CCCN(C)C(=O)c1cc(N)c2nc(-c3ccccn3)nn2c1 [Example 31]
Ask | Just tell me: smaller Ki value, I or II ? Respond using the label that marks the chosen record.
Reply | I

(1) COC[C@@H]1CCCN1C(=O)c1cc(N)c2nc(-c3cccs3)nn2c1 [Example 58]
(2) CC1CCCCN1C(=O)c1cc(N)c2nc(-c3cccs3)nn2c1 (stereo not shown) [Example 55]
Ask | Just tell me: smaller Ki value, 1 or 2 ? Respond using the label that marks the chosen record.
Reply | 2

----------
- Target Entity: hA1 (Homo sapiens, UniProt P30542)
- Sequence (P30542 1-326): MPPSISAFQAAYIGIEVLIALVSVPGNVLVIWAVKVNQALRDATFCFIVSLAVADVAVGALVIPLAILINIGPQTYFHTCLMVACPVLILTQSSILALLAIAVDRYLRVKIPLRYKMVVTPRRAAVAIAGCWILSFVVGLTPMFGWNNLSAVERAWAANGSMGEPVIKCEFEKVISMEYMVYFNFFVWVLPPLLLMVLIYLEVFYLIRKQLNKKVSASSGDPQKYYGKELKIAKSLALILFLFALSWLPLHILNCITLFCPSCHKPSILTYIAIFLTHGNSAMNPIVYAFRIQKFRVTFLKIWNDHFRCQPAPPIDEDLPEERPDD
Property Label: Ki (nM)
Provide only the numeric value, understood in nM.

Please review the following examples before continuing.
The reported Ki of the compound `CN(C)C(=O)CN(C)C(=O)c1cc(N)c2nc(-c3ccc(Br)o3)nn2c1` was 3000

The reported Ki of the compound COCC1CCCN1C(=O)c1cc(N)c2nc(-c3ccc(Br)o3)nn2c1 (stereo in doubt) was 1230

The reported Ki of the compound `Cc1ccc(-c2nc3c(N)cc(C(=O)N4CCCC4)cn3n2)o1` was 1640

The reported Ki of the compound `Cc1ccc(-c2nc3c(N)cc(C(=O)N4CCCCC4)cn3n2)o1` was 1270

Further cases:
The reported Ki of the compound CC1CCCCN1C(=O)c1cc(N)c2nc(-c3ccc(Br)o3)nn2c1 (centres unmarked) was 1940

The reported Ki of the compound `CN(CCc1ccccc1)C(=O)c1cc(N)c2nc(-c3ccc(Br)o3)nn2c1` was 590

The reported Ki of the compound CC1CCCN(C(=O)c2cc(N)c3nc(-c4ccc(Br)o4)nn3c2)C1 (centres unmarked) was 803

The reported Ki of the compound CC1CCCCN1C(=O)c1cc(N)c2nc(-c3ccco3)nn2c1 (centres unmarked) was 2190
